Reference source: paper PMC8319832

# System: human red blood cells (hRBCs)
# runDescription: Hemolytic activity determination
# Format: cell-based
# particulars: peptide 100 μg ml^–1; hRBCs in 0.9% sodium chloride, 37°C, 1 h, OD540, 1% Triton X-100 = 100%; three independent experiments
Where a SMILES comes first, the peptide text is derived from it.
measuredParameter: percent hRBC hemolysis (%)
Hi! Could you send only the number? It should be in %, unit omitted.

* CC[C@H](C)[C@H](NC(=O)[C@H](CCCNC(=N)N)NC(=O)[C@H](CCCNC(=N)N)NC(=O)[C@@H](NC(=O)[C@@H](N)Cc1ccccc1)[C@@H](C)CC)C(=O)N[C@@H](C)C(=O)N[C@@H](CCCNC(=N)N)C(=O)N[C@@H](CC(C)C)C(=O)N[C@@H](CC(C)C)C(=O)N[C@@H](CCCNC(=N)N)C(=O)N[C@@H](CCCNC(=N)N)C(=O)N[C@H](C(=O)N[C@@H](Cc1ccccc1)C(N)=O)[C@@H](C)CC [BmKn2-7R] (H-FIRRIARLLRRIF-NH2) | 73.1
* CC[C@H](C)[C@H](NC(=O)[C@H](CCCNC(=N)N)NC(=O)[C@H](CCCCN)NC(=O)[C@@H](NC(=O)[C@@H](N)Cc1ccccc1)[C@@H](C)CC)C(=O)N[C@@H](C)C(=O)N[C@@H](CCCNC(=N)N)C(=O)N[C@@H](CC(C)C)C(=O)N[C@@H](CC(C)C)C(=O)N[C@@H](CCCNC(=N)N)C(=O)N[C@@H](CCCCN)C(=O)N[C@H](C(=O)N[C@@H](Cc1ccccc1)C(N)=O)[C@@H](C)CC [BmKn2-7] (H-FIKRIARLLRKIF-NH2) | 41.0
* CC[C@H](C)[C@H](NC(=O)[C@H](CCCCN)NC(=O)[C@H](CCCCN)NC(=O)[C@@H](NC(=O)[C@@H](N)Cc1ccccc1)[C@@H](C)CC)C(=O)N[C@@H](C)C(=O)N[C@@H](CCCCN)C(=O)N[C@@H](CC(C)C)C(=O)N[C@@H](CC(C)C)C(=O)N[C@@H](CCCCN)C(=O)N[C@@H](CCCCN)C(=O)N[C@H](C(=O)N[C@@H](Cc1ccccc1)C(N)=O)[C@@H](C)CC [BmKn2-7K] (H-FIKKIAKLLKKIF-NH2) | 12.2

Proceed to the following item.
// lookup percent hRBC hemolysis | system=human red blood cells (hRBCs) | key= CC[C@H](C)[C@H](NC(=O)[C@H](CCCNC(=N)N)NC(=O)[C@H](CCCNC(=N)N)NC(=O)[C@@H](NC(=O)[C@@H](N)Cc1ccccc1)[C@@H](C)CC)C(=O)N[C@@H](C)C(=O)N[C@@H](CCCNC(=N)N)C(=O)N[C@@H](CC(C)C)C(=O)N[C@@H](CC(C)C)C(=O)N[C@@H](CCCNC(=N)N)C(=O)N[C@@H](CCCCN)C(=O)N[C@H](C(=O)N[C@@H](Cc1ccccc1)C(N)=O)[C@@H](C)CC [Kn2-7(K3R)] (H-FIRRIARLLRKIF-NH2)
89.3

====

# System: E. coli 2687
# runDescription: Drug sensitivity, Kirby-Bauer test
# Assay type: cell-based, Escherichia coli
# Set-up: key: 'S' represents susceptibility; 'I' represents intermediate efficacy; 'R' represents resistance
# particulars: clinical isolate, ESBL
measuredParameter: Drug sensitivity of the isolate to the antibiotic

• CC(C)(O/N=C(\C(=O)N[C@@H]1C(=O)N2C(C(=O)[O-])=C(C[n+]3ccccc3)CS[C@H]12)c1csc(N)n1)C(=O)O = R
• NCC[C@H](O)C(=O)N[C@@H]1C[C@H](N)[C@@H](O[C@H]2O[C@H](CN)[C@@H](O)[C@H](O)[C@H]2O)[C@H](O)[C@H]1O[C@H]1O[C@H](CO)[C@@H](O)[C@H](N)[C@H]1O = S
• CC1(C)S[C@@H]2[C@H](NC(=O)[C@H](N)c3ccccc3)C(=O)N2[C@H]1C(=O)O = R
